This collection of values is drawn from patent US20200069691A1.

- Test Target: wild-type HIV-1 protease (Human immunodeficiency virus type 1 group M subtype B, UniProt P04585)
Please respond with reported IC50 for every item in the list.
Answer with a number only, understood to be in nM.

In: Looking for the measured IC50 of N=C1NC(CCC2CC2)(c2cccc(C(F)(F)F)c2)C(=O)N1Cc1ccc(C(F)(F)F)c(C(=O)N2Cc3nccnc3C2)c1 (stereo not shown) [Compound 114] , can you help?
Out: 34.5

In: Follow-up entry: N=C1NC(c2ccccc2)(c2ccccc2)C(=O)N1Cc1cccc(C(=O)N2Cc3ccc(C(F)(F)F)cc3C2)c1
Out: 14

In: Continue with N=C1NC(CCC2CC2)(c2cccc(F)c2)C(=O)N1Cc1ccc(C(F)(F)F)c(C(=O)N2CCn3c(nnc3C(F)(F)F)C2)c1 (stereo not shown)
Out: 10.5

In: Also, CC(C)CC[C@]1(c2ccc(F)cc2)NC(=N)N(C(COC(C)C)c2ccc(C(F)(F)F)c(C(=O)N3Cc4nccnc4C3)c2)C1=O (stereo partly shown) please.
Out: 0.52

In: Further, for N=C1NC(c2ccccc2)(c2ccccc2)C(=O)N1Cc1cccc(C(=O)N2CCn3cc(C(F)(F)F)nc3C2)c1 ?
Out: 84.2

In: // query: N=C1NC(c2ccc(F)cc2)(c2ccc(F)cc2)C(=O)N1Cc1cncc(C(=O)N2Cc3ccccc3C2)c1
Out: 93.1

In: Item: N=C1NC(c2ccccc2)(c2ccccc2)C(=O)N1Cc1ccc(C(F)(F)F)c(C(=O)N2CCN(c3ncccn3)CC2)c1
Out: 53

In: Cool, now CC(C)CCC1(c2ccc(F)cc2)NC(=N)N(Cc2ccc(C(F)(F)F)c(C(=O)N3CC[C@@]4(c5ccccc5)NOC[C@H]4C3)c2)C1=O (stereo partly shown)
Out: 33.3

In: Follow-up entry: CN1CCOc2cc(-c3ncc4c(n3)CN(C(=O)c3cc(CN5C(=N)N[C@](CCCC(F)(F)F)(c6ccc(F)cc6)C5=O)ccc3C(F)(F)F)C4)cnc21
Out: 4.6

In: Further, for N=C1N[C@](CCCC(F)(F)F)(c2ccc(F)cc2)C(=O)N1Cc1ccc(C(F)(F)F)c(C(=O)N2Cc3cnc(N4CCCC4)nc3C2)c1 ?
Out: 25.4

In: Same read-out for N#Cc1ncc2c(n1)CN(C(=O)c1cc(CN3C(=N)NC(c4ccccc4)(c4ccccc4)C3=O)ccc1Cl)C2 ?
Out: 5.13

In: Here is the next compound: N=C1NC(c2ccc(F)cc2)(c2cccc(-c3cccnc3)c2)C(=O)N1Cc1cccc(C(=O)N2Cc3ccccc3C2)c1 (stereo not shown)
Out: 32.7

In: Also N=C1NC(c2ccccc2)(c2ccccc2)C(=O)N1Cc1cccc(C(=O)N2CCc3cc(F)ccc3C2)c1 , if possible.
Out: 49
